This listing pairs compounds with measured IC50.
Target: PRS (prolyl-tRNA synthetase) (Homo sapiens)
Construct: the portion corresponding to PRS in cDNA of EPRS was subcloned; made in house
Sequence (P07814 1007-1512 limits assumed): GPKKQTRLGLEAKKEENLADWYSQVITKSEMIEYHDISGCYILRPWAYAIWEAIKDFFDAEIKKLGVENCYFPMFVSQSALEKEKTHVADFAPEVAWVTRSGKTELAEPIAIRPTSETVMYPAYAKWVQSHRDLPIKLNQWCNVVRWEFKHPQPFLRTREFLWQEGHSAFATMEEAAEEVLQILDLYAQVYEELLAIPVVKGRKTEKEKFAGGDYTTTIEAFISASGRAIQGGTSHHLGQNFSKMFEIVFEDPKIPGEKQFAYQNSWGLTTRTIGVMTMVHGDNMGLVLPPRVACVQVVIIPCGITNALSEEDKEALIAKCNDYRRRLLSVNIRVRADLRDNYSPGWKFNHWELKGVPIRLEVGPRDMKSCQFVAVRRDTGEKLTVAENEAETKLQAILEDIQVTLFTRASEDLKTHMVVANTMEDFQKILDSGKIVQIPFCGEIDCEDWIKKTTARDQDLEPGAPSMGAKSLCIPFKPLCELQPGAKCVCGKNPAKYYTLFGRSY
Assay: In vitro PRS enzyme activity inhibition experiment ([3H]proline, liquid scintillation)
Type: biochemical
Conditions: purified PRS protein subcloned from EPRS cDNA; 37° C., 5 to 10 minutes; read-out: PRS IC50

Answered examples (2):
compound: O=C(C[C@H]1NCCC[C@@H]1O)Cn1cnc2c(C(F)(F)F)c(Br)ccc21
target-or-test-system: PRS (prolyl-tRNA synthetase) (Homo sapiens)
recorded-measurement: < 0.1 µM
//
compound: O=C(C[C@H]1NCCC[C@@H]1O)Cn1cnc2ccc(Br)nc21
target-or-test-system: PRS (prolyl-tRNA synthetase) (Homo sapiens)
recorded-measurement: < 0.1 µM

Indicate the recorded IC50 value for this compound: Cc1ccc2c(nc(CO)n2CC(=O)C[C@H]2NCCC[C@@H]2O)c1C
> 0.5 µM

Indicate the recorded IC50 value for this compound: Cc1ccc2c(ncn2CC(=O)C[C@H]2NCCC[C@@H]2O)c1Br
< 0.1 µM

Indicate the recorded IC50 value for this compound: Cc1cc(Br)cc2c1ncn2CC(=O)C[C@H]1NCCC[C@@H]1O
< 0.1 µM

Indicate the recorded IC50 value for this compound: O=C(C[C@H]1NCCC[C@@H]1O)Cn1cnc2cccc(C(F)(F)F)c21
< 0.1 µM

Indicate the recorded IC50 value for this compound: O=C(C[C@H]1NCCC[C@@H]1O)Cn1cnc2c1CCCC2
0.1 to 0.5 µM

Indicate the recorded IC50 value for this compound: O=C(C[C@H]1NCCC[C@@H]1O)Cn1ncc2cc(Cl)ccc21
> 0.5 µM

Indicate the recorded IC50 value for this compound: O=C(C[C@H]1NCCC[C@@H]1O)Cn1cnc2cc(Cl)ccc21
< 0.1 µM

Indicate the recorded IC50 value for this compound: CN(C)Cc1nc2cc(Cl)c(Cl)cc2n1CC(=O)C[C@H]1NCCC[C@@H]1O
> 0.5 µM

Indicate the recorded IC50 value for this compound: O=C(C[C@H]1NCCC[C@@H]1O)Cn1c(C(F)(F)F)nc2cc(Cl)c(Cl)cc21
> 0.5 µM

Indicate the recorded IC50 value for this compound: O=C(C[C@H]1NCCC[C@@H]1O)Cn1c(CO)nc2ccc(Br)cc21
< 0.1 µM

Indicate the recorded IC50 value for this compound: O=C(C[C@H]1NCCC[C@@H]1O)Cn1cnc2cc(Br)cnc21
< 0.1 µM

Indicate the recorded IC50 value for this compound: C[C@@H](O)c1nc2ccccc2n1CC(=O)C[C@H]1NCCC[C@@H]1O
> 0.5 µM

Indicate the recorded IC50 value for this compound: O=C(C[C@H]1NCCC[C@@H]1O)Cn1cnc2c(Cl)cc(Cl)nc21
< 0.1 µM

Indicate the recorded IC50 value for this compound: O=C(C[C@H]1NCCC[C@@H]1O)Cn1cnc2c(F)c(F)ccc21
0.1 to 0.5 µM
